biological target: H1047R PIK3CA enzyme (Homo sapiens, UniProt P42336, H1047R); test: ADP-Glo Biochemical PIK3CA Kinase Assay
Sequence (P42336 whole entry H1047R): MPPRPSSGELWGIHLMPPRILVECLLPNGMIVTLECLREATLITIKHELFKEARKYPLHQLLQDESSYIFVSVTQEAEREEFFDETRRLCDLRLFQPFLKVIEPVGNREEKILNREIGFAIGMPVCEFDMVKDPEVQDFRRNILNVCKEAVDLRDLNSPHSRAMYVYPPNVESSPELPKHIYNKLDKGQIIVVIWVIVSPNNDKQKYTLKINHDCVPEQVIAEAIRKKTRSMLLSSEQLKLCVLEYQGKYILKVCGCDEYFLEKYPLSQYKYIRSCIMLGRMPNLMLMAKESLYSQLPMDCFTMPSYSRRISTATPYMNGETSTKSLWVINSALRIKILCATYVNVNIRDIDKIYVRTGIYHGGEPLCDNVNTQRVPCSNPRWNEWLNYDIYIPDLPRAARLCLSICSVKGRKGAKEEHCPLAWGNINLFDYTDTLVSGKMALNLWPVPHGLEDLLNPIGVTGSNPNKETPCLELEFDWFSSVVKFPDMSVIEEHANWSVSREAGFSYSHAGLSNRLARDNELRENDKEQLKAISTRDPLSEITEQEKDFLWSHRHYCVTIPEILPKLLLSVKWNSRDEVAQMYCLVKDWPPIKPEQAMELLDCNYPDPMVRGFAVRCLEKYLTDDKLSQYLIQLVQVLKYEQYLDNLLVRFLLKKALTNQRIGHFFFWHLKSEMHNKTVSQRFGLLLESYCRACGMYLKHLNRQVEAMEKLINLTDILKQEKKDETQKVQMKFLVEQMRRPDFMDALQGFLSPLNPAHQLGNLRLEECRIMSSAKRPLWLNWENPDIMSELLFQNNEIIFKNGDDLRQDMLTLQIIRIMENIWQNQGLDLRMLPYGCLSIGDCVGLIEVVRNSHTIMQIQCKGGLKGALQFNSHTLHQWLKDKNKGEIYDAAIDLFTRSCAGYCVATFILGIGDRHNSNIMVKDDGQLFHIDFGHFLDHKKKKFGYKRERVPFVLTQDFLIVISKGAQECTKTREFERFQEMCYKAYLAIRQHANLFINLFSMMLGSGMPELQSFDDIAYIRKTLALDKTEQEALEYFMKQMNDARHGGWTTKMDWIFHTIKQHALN
Sequence (P27986 whole entry partner): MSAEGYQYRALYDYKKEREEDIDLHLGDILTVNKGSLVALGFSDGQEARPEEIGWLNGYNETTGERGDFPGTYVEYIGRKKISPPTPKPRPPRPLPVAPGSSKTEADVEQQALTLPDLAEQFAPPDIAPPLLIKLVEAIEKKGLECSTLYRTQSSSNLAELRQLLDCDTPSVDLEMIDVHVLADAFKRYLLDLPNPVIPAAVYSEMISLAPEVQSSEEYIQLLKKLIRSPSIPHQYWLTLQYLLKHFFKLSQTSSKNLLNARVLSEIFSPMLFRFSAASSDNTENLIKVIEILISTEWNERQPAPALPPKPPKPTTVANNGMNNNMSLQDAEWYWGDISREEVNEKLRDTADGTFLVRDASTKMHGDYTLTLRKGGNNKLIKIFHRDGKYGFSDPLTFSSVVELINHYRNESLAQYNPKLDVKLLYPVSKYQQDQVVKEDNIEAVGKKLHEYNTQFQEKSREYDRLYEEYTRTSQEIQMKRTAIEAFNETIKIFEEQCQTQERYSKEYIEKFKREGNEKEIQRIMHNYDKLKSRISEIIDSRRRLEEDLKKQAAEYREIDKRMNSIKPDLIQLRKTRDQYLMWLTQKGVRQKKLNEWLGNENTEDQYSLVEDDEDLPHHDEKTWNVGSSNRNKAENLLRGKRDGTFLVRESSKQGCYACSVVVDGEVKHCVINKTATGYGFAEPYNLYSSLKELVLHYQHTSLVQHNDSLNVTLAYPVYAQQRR
Endpoint: IC50

Take a look at these entries with their results.
O=C(Nc1cc(-c2ccn3ccnc3c2)cc2c1[C@@H](c1cc(F)ccc1Cl)NC2=O)c1cc(F)cc(C(F)(F)F)c1 :: 100 to 500 nM
O=C(Nc1cc(C#Cc2cccnc2)cc2c1C(c1cc(F)ccc1Cl)NC2=O)c1cc(F)cc(C(F)(F)F)c1 (stereo not shown) :: ≤ 100 nM
Cc1cc(F)ccc1C1NC(=O)c2cccc(NC(=O)c3cc(F)cc(C(F)(F)F)c3)c21 (stereo not shown) :: 500 to 1000 nM

IN: Tell me IC50 reported for O=C(Nc1cc(Br)cc2c1C(c1cc(F)ccc1Cl)NC2=O)c1cc(Cl)cc2c1NCCO2 (stereo not shown)
OUT: 1000 to 10000 nM

###

target: H1047R PIK3CA enzyme (Homo sapiens, UniProt P42336, H1047R); assay: ADP-Glo Biochemical PIK3CA Kinase Assay
IC50 values for the compounds below.

Take a look at these entries with their results.
CC(C)n1cc(-c2cc(NC(=O)c3cc(F)cc(C(F)(F)F)c3)c3c(n2)C(=O)N[C@H]3c2cc(F)ccc2Cl)ccc1=O :: ≤ 100 nM
CC1(n2[nH]c(=O)c3cccc(NC(=O)c4cc(F)cc(C(F)(F)F)c4)c32)CCCCC1 :: 1000 to 10000 nM
Cc1ccccc1C1NC(=O)c2nccc(NC(=O)c3csc4ccccc34)c21 (centres unmarked) :: 100 to 500 nM

IN: Tell me IC50 reported for `CN(C)S(=O)(=O)c1cc(-c2ccc3ncnn3c2)cc2c1[C@H](c1cc(F)ccc1Cl)NC2=O`
OUT: 10000 to 100000 nM

IN: Tell me IC50 reported for O=C(Nc1cc(-c2ccc3ocnc3c2)cc2c1C(c1cc(F)ccc1Cl)NC2=O)c1cc(F)cc(C(F)(F)F)c1 (centres unmarked)
OUT: ≤ 100 nM

IN: Tell me IC50 reported for CS(=N)(=O)Cc1cc(NC(=O)c2cc(F)cc(C(F)(F)F)c2)c2c(c1)C(=O)NC2c1cc(F)ccc1Cl (centres unmarked)
OUT: ≤ 100 nM

IN: Tell me IC50 reported for O=C(Nc1cc(NCC(F)F)nc2c1C(c1cc(F)ccc1Cl)NC2=O)c1cc(F)cc(C(F)(F)F)c1 (centres unmarked)
OUT: ≤ 100 nM

IN: Tell me IC50 reported for `Cc1ccccc1-n1[nH]c(=O)c2cccc(NC(=O)c3nsc4ccc(F)cc34)c21`
OUT: 1000 to 10000 nM

###

IC50 values for the molecules below.
biological target: H1047R PIK3CA enzyme (Homo sapiens, UniProt P42336, H1047R); assay: ADP-Glo Biochemical PIK3CA Kinase Assay

IN: Tell me IC50 reported for CC(C)C1CCCN1C(=O)Nc1cccc2c1C(c1cc(F)ccc1Cl)NC2=O (mixture of isomers)
OUT: 1000 to 10000 nM

IN: Tell me IC50 reported for O=C(Nc1ccccc1)Nc1cc(Br)cc2c1[C@H](c1cc(F)ccc1Cl)NC2=O (stereo in doubt)
OUT: 10000 to 100000 nM

IN: Tell me IC50 reported for O=C1NC(c2cc(F)ccc2Cl)c2c(NC(=O)C3CCS(=O)(=O)CC3)cc(-c3ccc4ncnn4c3)cc21 (centres unmarked)
OUT: 1000 to 10000 nM

IN: Tell me IC50 reported for Cc1ccccc1C1NC(=O)c2c(N(C)C)ncc(NC(=O)c3cc(F)cc(C(F)(F)F)c3)c21 (centres unmarked)
OUT: 500 to 1000 nM

IN: Tell me IC50 reported for O=C1NC(c2cc(F)ccc2Cl)c2c(NC(=O)N3CCc4ccc(F)cc43)cc(Br)cc21 (centres unmarked)
OUT: ≤ 100 nM

IN: Tell me IC50 reported for O=C1NC(c2cc(F)ccc2Cl)c2c(NC(=O)N3CCOCC3)cc(Br)cc21 (centres unmarked)
OUT: 10000 to 100000 nM

IN: Tell me IC50 reported for COc1ccnc(Oc2cc(NC(=O)c3cc(F)cc(C(F)(F)F)c3)c3c(c2)C(=O)NC3c2cc(F)ccc2Cl)n1 (centres unmarked)
OUT: 100 to 500 nM

IN: Tell me IC50 reported for O=C(CO)Nc1cc(NC(=O)c2cc(F)cc(C(F)(F)F)c2)c2c(c1)C(=O)NC2c1cc(F)ccc1Cl (centres unmarked)
OUT: ≤ 100 nM

IN: Tell me IC50 reported for O=C(Nc1cc(-c2ccncc2F)cc2c1[C@@H](c1cc(F)ccc1Cl)NC2=O)c1cc(F)cc(C(F)(F)F)c1 (stereo in doubt)
OUT: ≤ 100 nM

IN: Tell me IC50 reported for O=C(Nc1cc(-c2ccc3ncnn3c2)cc2c1[C@H](c1cc(F)ccc1Cl)NC2=O)c1cc(F)c(F)c(Cl)c1 (stereo in doubt)
OUT: ≤ 100 nM

IN: Tell me IC50 reported for Cn1ccnc1-c1cc(NC(=O)c2cc(F)cc(C(F)(F)F)c2)c2c(c1)C(=O)NC2c1cc(F)ccc1Cl (racemic)
OUT: 100 to 500 nM

IN: Tell me IC50 reported for Cn1cc(-c2cc(NC(=O)c3cc(F)cc(C(F)(F)F)c3)c3c(c2)C(=O)NC3c2cc(F)ccc2Cl)ncc1=O (centres unmarked)
OUT: ≤ 100 nM

IN: Tell me IC50 reported for Cc1cccnc1C1NC(=O)c2cccc(NC(=O)c3csc4ccccc34)c21 (centres unmarked)
OUT: 1000 to 10000 nM

IN: Tell me IC50 reported for O=C1N[C@@H](c2cc(F)ccc2Cl)c2c(NC(=O)[C@H]3C[C@H](O)C[C@@H](C(F)(F)F)C3)cc(Br)cc21 (single isomer, unassigned) [Compound I-2179]
OUT: 500 to 1000 nM
